Provenance of the data: patent US10676486B2

Give measured remaining activity at 1 µM for each item. Keep answers brief.
target: RIP2 recombinant protein (Homo sapiens); assay: Radiometric protein kinase assay (33PanQinase Activity Assay) for RIP2, peptide-based; assay type: biochemical; settings: 1 h; compound at 1 μM
Sequence (O43353 whole entry): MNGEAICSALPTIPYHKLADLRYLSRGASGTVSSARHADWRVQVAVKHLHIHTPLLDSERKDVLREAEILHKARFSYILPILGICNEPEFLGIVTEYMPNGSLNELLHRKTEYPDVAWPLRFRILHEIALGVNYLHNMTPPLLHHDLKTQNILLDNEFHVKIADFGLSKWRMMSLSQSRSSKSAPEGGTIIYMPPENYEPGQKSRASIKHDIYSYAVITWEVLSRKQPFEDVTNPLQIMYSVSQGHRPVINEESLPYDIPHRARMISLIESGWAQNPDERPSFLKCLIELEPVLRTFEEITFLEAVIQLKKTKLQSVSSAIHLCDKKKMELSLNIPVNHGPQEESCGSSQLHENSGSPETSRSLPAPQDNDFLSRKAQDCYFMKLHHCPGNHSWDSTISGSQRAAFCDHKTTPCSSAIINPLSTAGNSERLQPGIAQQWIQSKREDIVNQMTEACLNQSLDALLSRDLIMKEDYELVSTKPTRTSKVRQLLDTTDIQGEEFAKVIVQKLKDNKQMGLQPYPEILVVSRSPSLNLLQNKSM

{"molecule": "Clc1cc2cc(c1)-c1cnn3ccc(nc13)NC[C@@H]1CCCN1CCCO2", "system tested": "RIP2 recombinant protein (Homo sapiens)", "remaining activity at 1 µM": "< 50%"}

Provide reported remaining activity at 1 µM for each item, in the same order as listed.
1. Clc1cc2cc(c1)-c1cnn3ccc(nc13)NC[C@@H]1CCCN1CCO2
2. Fc1cc2cc(c1)-c1cnn3ccc(nc13)NC[C@H]1CCCN1CCCO2
3. Fc1cc2cc(c1)-c1cnn3ccc(nc13)NCC[C@H]1CCCN1CCO2
4. c1cc2cc(c1)-c1cnn3ccc(nc13)NCC1CCCN1CCO2 (stereo not drawn)
5. Fc1cc2cc(c1)-c1cnn3ccc(nc13)NC[C@@H]1CCCN1CCO2

[out]
["< 50%", "< 50%", "< 50%", "< 50%", "< 50%"]

Provide reported remaining activity at 1 µM for each item, in the same order as listed.
1. Clc1cc2cc(c1)-c1cnn3ccc(nc13)NC[C@H]1CCCN1CCCO2
2. Fc1cc2cc(c1)-c1cnn3ccc(nc13)NCC1CCCCN1CCO2 (stereo not drawn)
3. c1cc2cc(c1)-c1cnn3ccc(nc13)NC[C@@H]1CCCN1CCO2

[out]
1. < 50%
2. < 50%
3. < 50%

Provide reported remaining activity at 1 µM for each item, in the same order as listed.
1. Fc1cc2cc(c1)-c1cnn3ccc(nc13)NC[C@@H]1CCCN1CCCO2
2. CN1C[C@@H]2CCCN2CCOc2cccc(c2)-c2cnn3ccc1nc23
3. Fc1c(Cl)cc2cc1OCCN1CCC[C@H]1CNc1ccn3ncc-2c3n1

[out]
1. < 50%
2. < 50%
3. < 50%

====

Give measured melting point for each item. Keep answers brief.
Give bare numbers, in °C.

{"compound": "Clc1cc2cc(c1)-c1cnn3ccc(nc13)NC[C@H]1CCCN1CCCO2", "units symbol": "°C", "melting point": 186.4}
{"compound": "CN1C[C@@H]2CCCN2CCOc2cccc(c2)-c2cnn3ccc1nc23", "units symbol": "°C", "melting point": 198.5}
{"compound": "CN1CC2CCCN2CCOc2cccc(c2)-c2cnn3ccc1nc23 (stereo not shown)", "units symbol": "°C", "melting point": 91.2}

With those in mind, consider the next compound.
[in] Recorded melting point for Fc1cc2cc(c1)-c1cnn3ccc(nc13)NC[C@@H]1CCCN1CCO2 , please?
[out] 241
